measured-target: human adrenergic-α2C receptor (Homo sapiens, UniProt P18825)
Construct: expressed in transfected cells; host or cells: CHO cells, stably transfected; membrane preparation
Sequence (P18825 whole entry): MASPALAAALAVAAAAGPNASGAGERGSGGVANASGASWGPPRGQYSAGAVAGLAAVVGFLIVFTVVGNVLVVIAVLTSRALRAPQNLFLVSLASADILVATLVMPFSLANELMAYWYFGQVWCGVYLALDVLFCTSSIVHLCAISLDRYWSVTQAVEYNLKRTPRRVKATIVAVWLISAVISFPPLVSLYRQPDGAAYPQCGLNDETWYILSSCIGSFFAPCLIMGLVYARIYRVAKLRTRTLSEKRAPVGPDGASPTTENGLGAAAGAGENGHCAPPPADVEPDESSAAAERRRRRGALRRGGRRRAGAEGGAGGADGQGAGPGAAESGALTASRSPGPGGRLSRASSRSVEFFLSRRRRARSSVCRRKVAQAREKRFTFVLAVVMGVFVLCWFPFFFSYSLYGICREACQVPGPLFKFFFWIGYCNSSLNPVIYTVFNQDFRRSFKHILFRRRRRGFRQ
test-summary: Radioligand binding experiment for hα2C-adrenoceptor ([3H]raulwolscine)
experimental-conditions: [3H]raulwolscine 1 nM, 60 minutes at 25° C.; read-out: h-α2C pIC50 (converted)
quantity: IC50 (nM)
One number for each entry, in nM.

- structure-string: "O=c1c(NC2CCN(Cc3ccc4ccccc4c3)CC2)nccn1CCCOCc1ccccc1"
  quantity: "IC50"
  assay-result: 25.1
- structure-string: "O=C1c2ccccc2C(=O)N1CC#CCn1ccnc(NC2CCN(Cc3ccc4ccccc4c3)CC2)c1=O"
  quantity: "IC50"
  assay-result: 7.94
- structure-string: "O=c1c(NC2CCN(Cc3ccc4ccccc4c3)CC2)nccn1CCCOc1ccccc1"
  quantity: "IC50"
  assay-result: 50.1

Q: IC50 for CC(C)(C)OC(=O)NCc1ccc(-n2ccnc(NC3CCN(Cc4ccc5ccccc5c4)CC3)c2=O)cc1 ?
A: 79.4
